Molecular target: Recombinant KAT6A/MOZ (488-778) protein (Homo sapiens (Human))
Experiment: KAT6A AlphaLISA Inhibition Screening Assay
Type: biochemical
Settings: read-out: Average Kat6A % inhibition @ 10 μM; 10 μM test compound
Measured Metric: inhibition at 10 µM (%)

{"columns": ["Molecule", "Assay Value"],
 "data": [
  ["CC#CC(=O)NCc1cnn(Cc2cc(OC)c3c(NS(=O)(=O)c4cc(CC)ccc4OC)noc3c2)c1 [Syn. Ex. 15]", 100],
  ["C#CC(=O)NCc1cnn(Cc2cc(OC)c3c(NS(=O)(=O)c4cc(Cl)c(C)cc4OC)noc3c2)c1 [Syn. Ex. 21]", 99],
  ["CCc1ccc(OC)c(S(=O)(=O)Nc2noc3cc(Oc4ccc(N)cn4)cc(OC)c23)c1 [Syn. Ex. 109]", 98],
  ["CCc1ccc(OC)c(S(=O)(=O)Nc2noc3cc(Cn4cc(CNC(=O)OCCNC(=O)OC(C)(C)C)cn4)cc(OC)c23)c1 [Syn. Ex. 31]", 99],
  ["C=C(F)C(=O)NCc1cnn(Cc2cc(OC)c3c(NS(=O)(=O)c4cc(C)c(C)cc4OC)noc3c2)c1 [Syn. Ex. 28]", 100],
  ["CCc1ccc(OC)c(S(=O)(=O)Nc2noc3cc(Cn4cc(CNC(=O)[C@@H](C)F)cn4)cc(OC)c23)c1 (single isomer, unassigned) [Syn. Ex. 47a]", 100]
]}

* * *

Target: Recombinant KAT6A/MOZ (488-778) protein (Homo sapiens (Human), UniProt Q92794)
Sequence (Q92794 488-778): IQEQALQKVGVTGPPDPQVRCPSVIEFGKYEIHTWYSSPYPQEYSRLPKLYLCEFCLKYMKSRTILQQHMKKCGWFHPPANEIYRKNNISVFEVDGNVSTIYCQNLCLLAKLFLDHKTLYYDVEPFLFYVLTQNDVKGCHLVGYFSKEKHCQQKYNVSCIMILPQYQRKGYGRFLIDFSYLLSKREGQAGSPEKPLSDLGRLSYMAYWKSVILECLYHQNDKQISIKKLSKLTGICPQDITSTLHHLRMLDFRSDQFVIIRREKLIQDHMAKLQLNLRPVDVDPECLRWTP
Experiment: KAT6A AlphaLISA Inhibition Screening Assay
Assay type: biochemical
Details: read-out: Average Kat6A % inhibition @ 1 μM; 1 μM test compound
Measured Metric: inhibition at 1 µM (%)

{"columns": ["Molecule", "Unit Info", "inhibition at 1 µM"],
 "data": [
  ["COc1ccc(C(C)(C)C)cc1S(=O)(=O)Nc1noc2cc(Cn3cc(CNS(C)(=O)=O)cn3)cc(OC)c12 [Syn. Ex. 33]", "%", 96],
  ["C=C(F)C(=O)NCc1cnn(Cc2cc(OC)c3c(NS(=O)(=O)c4cc(CC)ccc4OCC(=O)N4CCOCC4)noc3c2)c1 [Syn. Ex. 68]", "%", 96],
  ["CCc1ccc(OC)c(S(=O)(=O)Nc2noc3cc(Oc4ncc(CNC(=O)OC)o4)cc(OC)c23)c1 [Syn. Ex. 100]", "%", 92]
]}

* * *

Biological target: Recombinant KAT6A/MOZ (488-778) protein (Homo sapiens (Human), UniProt Q92794)
Experiment: KAT6A AlphaLISA Inhibition Screening Assay
Assay type: biochemical
Conditions: read-out: Average Kat6A % inhibition @ 1 μM; 1 μM test compound
Measured Metric: inhibition at 1 µM (%)

{"columns": ["Compound", "Unit Info", "inhibition at 1 µM"],
 "data": [
  ["C#CCOc1ccc(CC)cc1S(=O)(=O)Nc1noc2cc(Cn3cc(CNC(=O)OC)cn3)cc(OC)c12 [Syn. Ex. 128]", "%", 101],
  ["C=C(F)C(=O)NCc1cnn(Cc2cc(OC)c3c(NS(=O)(=O)c4cc(CC)ccc4OCc4ncc[nH]4)noc3c2)c1 [Syn. Ex. 119]", "%", 100],
  ["COc1cc2c(cc1S(=O)(=O)Nc1noc3cc(Cn4cc(CNS(C)(=O)=O)cn4)cc(OC)c13)CCC2 [Syn. Ex. 24]", "%", 99]
]}

* * *

Target: GST-Tagged Kat6B (Homo sapiens (Human), UniProt Q8WYB5)
Sequence (Q8WYB5 657-1069): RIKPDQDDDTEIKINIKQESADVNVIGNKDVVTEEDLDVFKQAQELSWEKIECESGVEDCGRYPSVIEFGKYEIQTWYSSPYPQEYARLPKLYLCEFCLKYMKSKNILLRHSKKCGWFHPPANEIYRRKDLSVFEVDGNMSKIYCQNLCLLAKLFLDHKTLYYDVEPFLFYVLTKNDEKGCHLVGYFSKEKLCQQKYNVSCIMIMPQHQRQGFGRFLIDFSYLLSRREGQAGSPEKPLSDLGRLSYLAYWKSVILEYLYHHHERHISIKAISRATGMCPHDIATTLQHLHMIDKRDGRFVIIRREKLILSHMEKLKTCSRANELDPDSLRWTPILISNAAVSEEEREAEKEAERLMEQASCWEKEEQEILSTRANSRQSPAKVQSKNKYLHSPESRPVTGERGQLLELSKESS
Measured Metric: IC50 (nM)

{"columns": ["Compound", "Assay Value"],
 "data": [
  ["C=C(F)C(=O)NCc1cnn(Cc2cc(OC(F)F)c3c(NS(=O)(=O)c4cc(CC)ccc4OC)noc3c2)c1 [Syn. Ex. 52]", 3670]
]}

I. COc1ccccc1S(=O)(=O)Nc1noc2cc(Cn3cccn3)cc(OC)c12 [Example 45, WO 2020/254946, reference compound]
II. COc1cccc(OC)c1S(=O)(=O)Nc1noc2cc(Cn3cccn3)cc(OC(F)F)c12 [Claim 83 of WO 2023/088233, reference compound]
Exercise: // pick min by IC50: I , II Response format: the label of the selected entry.
Key: I

a. COC(=O)NCc1cnn(Cc2cc(OC)c3c(NS(=O)(=O)c4cc5c(cc4OC)CCC5)noc3c2)c1 [Syn. Ex. 25]
b. COc1cccc(OC)c1S(=O)(=O)Nc1noc2cc(Oc3ccccn3)cc(OC)c12 [Compound 9, WO 2023/088233, reference compound]
Exercise: Problem: Given the entries a and b , determine which has the lower reported IC50. Field: selected label. Fill in the label of the entry you choose.
Key: b
(b: 332 nM, a: 722 nM)

* * *

Test system: ZR-75-1 cells
Experiment: Cell Titer-Glo Luminescent Cell Viability Assay in ZR-75-1 Cells
Type: cell-based
Settings: Homo sapiens, compounds replenished every 48 hours till day 10, CellTiter-Glo
pEC50: −log10 of the molar value.
Measured Metric: pEC50

{"columns": ["Molecule", "pEC50"],
 "data": [
  ["C#CC(=O)NCc1cnn(Cc2cc(OC)c3c(NS(=O)(=O)c4cc(C)c(C)cc4OC)noc3c2)c1 [Syn. Ex. 19]", "> 7.00"]
]}

Exercise: Please indicate pEC50 recorded for C=C(F)C(=O)NCc1cnn(Cc2cc(OC)c3c(NS(=O)(=O)c4cc(CC)ccc4OCC(=O)OC)noc3c2)c1 [Syn. Ex. 54]
Key: > 7.00

Exercise: Complete the entry with pEC50 for CCc1ccc(OC)c(S(=O)(=O)Nc2noc3cc(Cn4cc(CNC(=O)C(C)F)cn4)cc(OC)c23)c1 (stereo not drawn) [Syn. Ex. 47]
Key: 6.00 to 7.00

Exercise: Tell us which pEC50 value is on record for COC(=O)NCc1cnn(Cc2cc(OC(F)F)c3c(NS(=O)(=O)c4c(OC)cccc4OC)noc3c2)c1 [Syn. Ex. 50]
Key: 6.00 to 7.00

Exercise: Look up and report measured pEC50 for this entry: CC#CC(=O)NCc1cnn(Cc2cc(OC)c3c(NS(=O)(=O)c4ccc(OC)cc4OC)noc3c2)c1 [Syn. Ex. 46]
Key: 6.00 to 7.00

Exercise: Output measured pEC50 for this item: C#CC(=O)NCc1cnn(Cc2cc(OC(F)F)c3c(NS(=O)(=O)c4cc(CC)ccc4OC)noc3c2)c1 [Syn. Ex. 53]
Key: 5.00 to 6.00

* * *

Target: Recombinant KAT6A/MOZ (488-778) protein (Homo sapiens (Human))
Assay: KAT6A AlphaLISA Inhibition Screening Assay
Format: biochemical
Settings: read-out: Average Kat6A % inhibition @ 10 μM; 10 μM test compound
Measured Metric: inhibition at 10 µM (%)

{"columns": ["Compound", "Unit Info", "Assay Value"],
 "data": [
  ["CCc1ccc(OC)c(S(=O)(=O)Nc2noc3cc(Cn4cc(CNC(=O)OC)cn4)cc(OC(F)F)c23)c1 [Syn. Ex. 63]", "%", 96],
  ["COc1cc(C)c(Cl)cc1S(=O)(=O)Nc1noc2cc(Cn3cc(CNS(C)(=O)=O)cn3)cc(OC)c12 [Syn. Ex. 22]", "%", 100],
  ["CCc1ccc(OC)c(S(=O)(=O)Nc2noc3cc(Oc4ccc(CNC(=O)OC)cn4)cc(OC)c23)c1 [Syn. Ex. 56]", "%", 99],
  ["CC#CC(=O)N1Cc2cnn(Cc3cc(OC)c4c(NS(=O)(=O)c5cc(CC)ccc5OC)noc4c3)c2C1 [Syn. Ex. 11]", "%", 100],
  ["COC(=O)NCc1cnn(Cc2cc3onc(NS(=O)(=O)c4cc(F)ccc4OC)c3c3c2CCCO3)c1 [Syn. Ex. 124]", "%", 100]
]}

* * *

Target: Recombinant KAT6A/MOZ (488-778) protein (Homo sapiens (Human), UniProt Q92794)
Test: KAT6A AlphaLISA Inhibition Screening Assay
Format: biochemical
Settings: read-out: Average Kat6A % inhibition @ 10 μM; 10 μM test compound
Measured Metric: inhibition at 10 µM (%)

{"columns": ["Molecule", "inhibition at 10 µM / %"],
 "data": [
  ["C=C(F)C(=O)NCc1cnn(Cc2cc3onc(NS(=O)(=O)c4cc(CC)ccc4OC)c3c3c2CCCO3)c1 [Syn. Ex. 96]", 100],
  ["C=C(F)C(=O)NCc1cnn(Cc2cc(OC)c3c(NS(=O)(=O)c4ccc(OC)cc4OC)noc3c2)c1 [Syn. Ex. 60]", 100],
  ["C=C(F)C(=O)NCc1cnn(Cc2cc(OC(F)F)c3c(NS(=O)(=O)c4cc(CC)ccc4OC)noc3c2)c1 [Syn. Ex. 52]", 100],
  ["CC#CC(=O)N1Cc2cn(Cc3cc(OC)c4c(NS(=O)(=O)c5cc(CC)ccc5OC)noc4c3)nc2C1 [Syn. Ex. 12]", 97],
  ["CCc1ccc(S(=O)(=O)Nc2noc3cc(Cn4cc(CNC(=O)OC)cn4)cc(OC)c23)c(OC)c1 [Syn. Ex. 125]", 101],
  ["C=C(F)C(=O)NCc1cnn(Cc2cc(OC)c3c(NS(=O)(=O)c4cc(OC)ccc4OC)noc3c2)c1 [Syn. Ex. 41]", 100],
  ["C#Cc1ccc(OC)c(S(=O)(=O)Nc2noc3cc(Cn4cc(CNC(=O)OC)cn4)cc(OC)c23)c1 [Syn. Ex. 112]", 98],
  ["C=C(F)C(=O)NCc1cnn(Cc2cc(OC)c3c(NS(=O)(=O)c4cc(CC)ccc4OCc4cnn[nH]4)noc3c2)c1 [Syn. Ex. 114]", 100],
  ["CCc1ccc(OC)c(S(=O)(=O)Nc2noc3cc(Cn4cc(CNC(=O)OC)cn4)c(F)c(OC)c23)c1 [Syn. Ex. 141]", 91],
  ["C=C(F)C(=O)NCc1cnn(Cc2cc(OC)c3c(NS(=O)(=O)c4cc(CC)ccc4OCCO)noc3c2)c1 [Syn. Ex. 113]", 100],
  ["CC#CC(=O)NCc1cnn(Cc2cc(OC)c3c(NS(=O)(=O)c4ccc(OC)cc4OC)noc3c2)c1 [Syn. Ex. 46]", 100],
  ["CCc1ccc(OCc2nn[nH]n2)c(S(=O)(=O)Nc2noc3cc(Cn4cc(CNC(=O)OC)cn4)cc(OC)c23)c1 [Syn. Ex. 71]", 100],
  ["C=C(F)C(=O)NCc1cnn(Cc2cc(OC)c3c(NS(=O)(=O)c4cc(CC)ccc4OCc4ccnc(OC)c4)noc3c2)c1 [Syn. Ex. 94]", 100],
  ["CCc1ccc(OCCNC(C)=O)c(S(=O)(=O)Nc2noc3cc(Cn4cc(CNC(=O)OC)cn4)cc(OC)c23)c1 [Syn. Ex. 81]", 99],
  ["C=C(F)C(=O)NCc1cnn(Cc2cc(OC)c3c(NS(=O)(=O)c4cc(CC)ccc4OCc4ncc[nH]4)noc3c2)c1 [Syn. Ex. 119]", 100]
]}
